- Assay system: human TRPM5 ion channel (Homo sapiens)
- Sequence (Q9NZQ8 1-1165): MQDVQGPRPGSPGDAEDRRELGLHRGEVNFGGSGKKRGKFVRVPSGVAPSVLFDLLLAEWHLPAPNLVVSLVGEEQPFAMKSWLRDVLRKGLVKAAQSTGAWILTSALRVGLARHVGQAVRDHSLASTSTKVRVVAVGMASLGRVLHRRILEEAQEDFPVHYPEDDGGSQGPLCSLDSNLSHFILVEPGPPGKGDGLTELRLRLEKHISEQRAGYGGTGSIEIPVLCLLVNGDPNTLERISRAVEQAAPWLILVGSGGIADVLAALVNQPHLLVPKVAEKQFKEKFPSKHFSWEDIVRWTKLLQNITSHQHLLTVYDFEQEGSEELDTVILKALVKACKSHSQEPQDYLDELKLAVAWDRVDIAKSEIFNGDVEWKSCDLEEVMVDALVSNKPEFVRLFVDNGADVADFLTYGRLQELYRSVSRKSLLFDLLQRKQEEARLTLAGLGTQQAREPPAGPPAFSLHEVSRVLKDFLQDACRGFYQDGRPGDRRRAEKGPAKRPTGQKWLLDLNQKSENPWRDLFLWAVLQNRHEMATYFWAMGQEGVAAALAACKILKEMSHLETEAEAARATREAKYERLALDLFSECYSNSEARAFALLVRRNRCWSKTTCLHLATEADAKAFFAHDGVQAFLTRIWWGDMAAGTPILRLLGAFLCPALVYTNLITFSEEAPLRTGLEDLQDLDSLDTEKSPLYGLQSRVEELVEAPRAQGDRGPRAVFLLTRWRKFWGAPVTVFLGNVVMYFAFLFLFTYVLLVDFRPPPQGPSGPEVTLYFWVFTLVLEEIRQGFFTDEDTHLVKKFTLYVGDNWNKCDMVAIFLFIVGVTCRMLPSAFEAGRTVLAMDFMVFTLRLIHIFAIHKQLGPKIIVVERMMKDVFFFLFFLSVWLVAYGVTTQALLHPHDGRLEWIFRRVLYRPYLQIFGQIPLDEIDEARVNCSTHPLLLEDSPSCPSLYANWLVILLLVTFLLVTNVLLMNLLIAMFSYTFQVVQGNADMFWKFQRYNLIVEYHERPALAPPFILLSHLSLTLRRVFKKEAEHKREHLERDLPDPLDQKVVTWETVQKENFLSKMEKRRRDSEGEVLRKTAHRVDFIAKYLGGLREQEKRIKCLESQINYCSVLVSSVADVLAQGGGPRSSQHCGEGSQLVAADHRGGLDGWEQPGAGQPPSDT
- Experiment description: FLIPR-based assay for membrane potential and calcium mobilization (TRPM5 inhibiting activity)
- Stated conditions: live cells, 30° C., read-out: hTrpM5 IC50
Measure name: IC50 (µM)

The examples below pair each entry with its known result.
COc1ccc(/C=N/NC(=O)CCn2cc(C)c3ccccc32)cc1OC ... 0.017
Cc1cc(/C=N/NC(=O)CSc2cccc(Cl)c2)cc2cccnc12 ... 0.83
COc1ccc(/C=N/NC(=O)CCn2cc(C)c3c(C)cccc32)cc1OC ... 0.0018
COc1ccc([C@@H]2C[C@H]2C(=O)N/N=C/c2cc(C)c3ncccc3c2)cn1 (relative stereo) ... 5
COc1ccc(/C=N/NC(=O)C(C)Sc2cccc(Cl)c2)cc1OC (stereo not shown) ... 0.055
Cc1cn(CCC(=O)N/N=C/c2cc(C)c3ncccc3c2)c2ccccc12 ... 0.03
COc1ccc(/C=N/NC(=O)C(C)S(=O)(=O)c2cccc(Cl)c2)cc1OC (stereo not shown) ... 1.7
COc1ccc(/C=N/NC(=O)NCCc2ccccc2)cc1OC ... 0.2

(a) COc1cc(/C=N/NC(=O)CCn2cc(C)c3ccccc32)ccc1OCCCO
(b) COc1ccc(/C=N/NC(=O)CSc2cccc(Cl)c2)cc1OC
(c) COc1ccnc2ccc(/C=N/NC(=O)CCn3cc(C)c4ccccc43)cc12
Sort low-to-high on IC50, please. Output spec: a listing of the labels in the requested order. b, c, a

(1) COc1cc(F)c(/C=N/NC(=O)CCn2cc(C)c3c(C)cccc32)cc1OC
(2) COc1cc(C)c2cc(/C=N/NC(=O)CCn3cc(C)c4ccccc43)ccc2n1
Pick one: 1 or 2 . Which one has the lower reported IC50? Write down the label of the entry you select. 1

(1) COc1cc(/C=N/NC(=O)CCn2cc(C)c3c(C)cccc32)ccc1OCc1ccccn1
(2) Cc1cc(/C=N/NC(=O)C2CC2c2ccc(F)cc2)cc2cccnc12 (stereo not shown)
Please indicate which item has the smaller measured IC50: 1 versus 2 # respond with the chosen item's label 1

(A) Cc1cccc2c1c(C)cn2CCC(=O)N/N=C/c1ccc2c(c1)OCCCO2
(B) COc1cc(/C=N/NC(=O)C2CC2c2cccc(Cl)c2)cc2cccnc12 (stereo not shown)
(C) Cc1cn(CCC(=O)N/N=C/c2ccc3c(c2)OCCN3C)c2ccccc12
List the 3 entries from lowest IC50 to highest IC50 value. List labels; respect the requested ordering. A, B, C

(A) COc1cccc([C@@H]2C[C@H]2C(=O)N/N=C/c2cc(C)c3ncccc3c2)n1 (relative stereo)
(B) COc1cc(/C=N/NC(=O)CCn2cc(C)c3c(C)cccc32)ccc1OCc1cccnn1
Pick the one with the larger IC50: A vs B In your reply, give the label of the chosen option. A
(A: 0.41 µM, B: 0.18 µM)

All figures here come from patent US20110033393A1.
